For each entry below, report its pIC50 value.
Test system: Neuroblastoma SK-N-FI/CRL-2142
experimental-details: CellTiter Glo cell viability assay
Type: cell-based
experimental-conditions: Homo sapiens, 11 dilutions 3-0.00001 μM
Answers are plain numbers, as −log10 of the molar value.

For orientation, consider the following solved cases.
| item-smiles | number |
| --- | --- |
| COc1cc(/C=C/c2cc(O)cc(OC)c2CC=C(C)C)ccc1O | 6.94 |
| COc1cc(/C=C/c2cc(O)cc(OC)c2CC=C(C)C)ccc1NC=O | 7.80 |
| CCOc1cc(O)cc(/C=C/c2ccc(NC=O)c(OC)c2)c1CC=C(C)C | 8.01 |
| CCOc1cc(O)cc(/C=C/c2ccc(O)c(O)c2)c1CC=C(C)C | 7.31 |

Would you kindly look at the next entry?
Enquiry: Bench note: what pIC50 did CCOc1cc(O)cc(/C=C/c2ccc(O)c(OC)c2)c1CC=C(C)C show?
Return: 7.58

---

experimental-details: Cell viability in keratinocyte CCL2 assay (assay number 1243)
Type: cell-based, human
experimental-conditions: human; maximum reduction of cell viability in CCL2 assay; read-out: Max Eff.: Viab (1243)
Source text: • 1. Determination of inhibition of CCL2 release from IL-4, IL-13, IL-22 and IFN-γ-stimulated primary human keratinocytes [assay number 1280] and determination of the effect on cell viability [assay number 1243]. • 2. Determination of inhibition of IL-8 release from IL-17A and TNFα-induced primary human keratinocytes [assay number 1250] and determination of the effect on cell viability [assay number 1244]. • 3. […]
Strictly below 60% in cytotoxicity: Satisfied. Otherwise: Not satisfied.

For orientation, consider the following solved cases.
| item-smiles | discrete-label |
| --- | --- |
| CCOc1cc(O)cc(/C=C/c2ccc(NC(=O)C(=O)O)c(OC)c2)c1CC=C(C)C | Satisfied |
| COc1cc(/C=C/c2cc(O)cc(OC)c2CC=C(C)C)ccc1NC(=O)CN | Not satisfied |
| CCOc1cc(O)cc(/C=C/c2ccc(O)c(OC)c2)c1CC=C(C)C | Not satisfied |

For the next question, use this compound.
Enquiry: In the record for COc1cc(/C=C/c2cc(O)cc(OC)c2CC=C(C)C)ccc1O , is cytotoxicity less than 60%?
Return: Not satisfied

---

For each entry below, report its IC50 value.
Tested on: Lung NCI-H1437
experimental-details: CellTiter Glo cell viability assay
Format: cell-based, human
experimental-conditions: Homo sapiens; NCI-H1437/CRL-5872; 11 dilutions 3-0.00001 μM; read-out: IC50

For orientation, consider the following solved cases.
| item-smiles | result |
| --- | --- |
| CCOc1cc(O)cc(/C=C/c2ccc(O)c(OC)c2)c1CC=C(C)C | 32.7 nM |
| CCOc1cc(O)cc(/C=C/c2ccc(NC=O)c(OC)c2)c1CC=C(C)C | 25.9 nM |
| COc1cc(/C=C/c2cc(O)cc(OC)c2CC=C(C)C)ccc1O | 143 nM |
| COc1cc(/C=C/c2cc(O)cc(OC)c2CC=C(C)C)ccc1NC=O | 32.2 nM |

Would you kindly look at the next entry?
Enquiry: Bench note: what IC50 did CCOc1cc(O)cc(/C=C/c2ccc(O)c(O)c2)c1CC=C(C)C show?
Return: 73.2 nM

---

System: Pancreatic MIA PaCa-2
experimental-details: CellTiter Glo cell viability assay
Assay type: cell-based, human
experimental-conditions: Homo sapiens, MIA PaCa-2, 120 h, Day 5 upon drug treatment; 10 dosages 0.0001-20 μM (Compound 8: 18 dosages 0.000038146 to 5 μM); read-out: IC50
For each entry below, report its pIC50 value.
Numbers only, as −log10 of the molar value.

| item-smiles | number |
| --- | --- |
| COC(=O)CNc1ccc(/C=C/c2cc(O)cc(OC)c2CC=C(C)C)cc1OC | 7.01 |
| COc1cc(/C=C/c2cc(O)cc(OC)c2CC=C(C)C)cc(C)c1O | 6.74 |
| COc1cc(/C=C/c2cc(O)cc(OC)c2CC=C(C)C)ccc1O | 7.29 |

Report pIC50 for every entry below.
1. COc1cc(/C=C/c2cc(O)cc(OC)c2CC=C(C)C)ccc1N
2. COc1cc(/C=C/c2cc(O)cc(OC)c2CC=C(C)C)ccc1NC(C)=O

Return:
1. 6.74
2. 6.73

---

For each entry below, report its pIC50 value.
Tested on: Pharynx DETROIT
experimental-details: CellTiter Glo cell viability assay
Type: cell-based, human
experimental-conditions: Homo sapiens; Detroit 562/CCL-138; 11 dilutions 3-0.00001 μM; read-out: IC50
Method: 1.7*10^3 cells/well were seeded in quadruplicates in 96-well plate after plating. Drugs were added at 5 μM and 2-fold dilutions over 18 concentrations (0.000038146-5 […] range) to generate a dose-response curve. Cell growth was assessed on day 1, 3 and 5 after drug treatments using the CellTiter Glo Luminescence Cell Viability Assay (Promega) according to manufacturer's protocol. Thermo Scientific Varioskan LUX Multimode Microplate instrument was used for plate reading. […]
Answers are plain numbers, as −log10 of the molar value.

For orientation, consider the following solved cases.
| molecule | pIC50 |
| --- | --- |
| CCOc1cc(O)cc(/C=C/c2ccc(O)c(OC)c2)c1CC=C(C)C [Compound 8] | 7.12 |
| COc1cc(/C=C/c2cc(O)cc(OC)c2CC=C(C)C)ccc1O [Compound 1] | 6.88 |
| COc1cc(/C=C/c2cc(O)cc(OC)c2CC=C(C)C)ccc1NC=O [Compound 27] | 7.69 |
| CCOc1cc(O)cc(/C=C/c2ccc(O)c(O)c2)c1CC=C(C)C [Compound 20] | 6.91 |

Would you kindly look at the next entry?
Enquiry: Bench note: what pIC50 did CCOc1cc(O)cc(/C=C/c2ccc(NC=O)c(OC)c2)c1CC=C(C)C [Compound 28] show?
Return: 7.94

---

Tested on: Pancreatic PANC-1
experimental-details: CellTiter Glo cell viability assay
Type: cell-based, human
experimental-conditions: Homo sapiens; PANC-1/CRL-1469; 11 dilutions 3-0.00001 μM; read-out: IC50
For each entry below, report its IC50 value.
Numbers only, in nM.

| compound | IC50 / nM |
| --- | --- |
| CCOc1cc(O)cc(/C=C/c2ccc(O)c(O)c2)c1CC=C(C)C [Compound 20] | 41.6 |

Report IC50 for every entry below.
1. CCOc1cc(O)cc(/C=C/c2ccc(O)c(OC)c2)c1CC=C(C)C [Compound 8]
2. COc1cc(/C=C/c2cc(O)cc(OC)c2CC=C(C)C)ccc1NC=O [Compound 27]
3. COc1cc(/C=C/c2cc(O)cc(OC)c2CC=C(C)C)ccc1O [Compound 1]
4. CCOc1cc(O)cc(/C=C/c2ccc(NC=O)c(OC)c2)c1CC=C(C)C [Compound 28]

Return:
1. 31.4
2. 28.8
3. 110
4. 17.8

---

For each entry below, report its cytotoxicity value.
experimental-details: Cell viability in keratinocyte IL-8 assay (assay number 1244)
Type: cell-based, human
experimental-conditions: human, primary human keratinocytes induced with IL-17A and TNFα; keratinocyte IL-8 assay; read-out: maximum reduction of cell viability
Numbers only, in %.

| compound | result-units | cytotoxicity |
| --- | --- | --- |
| COc1cc(/C=C/c2cc(O)cc(OC)c2CC=C(C)C)ccc1NC=O [Compound 27] | % | 83 |

Would you kindly look at the next entry?
Enquiry: Bench note: what cytotoxicity did CCOc1cc(O)cc(/C=C/c2ccc(NC=O)c(OC)c2)c1CC=C(C)C [Compound 28] show?
Return: 81

---

Test system: GBM patient sample BNA99
experimental-details: Ex vivo GBM 3D spheroid drug response (CellTiter-Glo 3D)
Assay type: cell-based, human
experimental-conditions: 3D spheroids; 4 days post drug treatment
value-kind: pIC50
Answers are plain numbers, as −log10 of the molar value.

Enquiry: Bench note: what pIC50 did COc1cc(/C=C/c2cc(O)cc(OC)c2CC=C(C)C)ccc1NC=O show?
Return: 5.05

---

Test system: Kidney ACHN
experimental-details: CellTiter Glo cell viability assay
Assay type: cell-based, human
experimental-conditions: Homo sapiens, ACHN, 120 h; Day 5 upon drug treatment; 10 dosages 0.0001-20 μM (Compound 8: 18 dosages 0.000038146 to 5 μM); read-out: IC50
value-kind: pIC50
One number for each entry, as −log10 of the molar value.

For orientation, consider the following solved cases.
| item-smiles | pIC50 |
| --- | --- |
| COC(=O)CNc1ccc(/C=C/c2cc(O)cc(OC)c2CC=C(C)C)cc1OC | 5.55 |
| COc1cc(/C=C/c2cc(O)cc(OC)c2CC=C(C)C)cc(C)c1O | 6.55 |
| COc1cc(/C=C/c2cc(O)cc(OC)c2CC=C(C)C)ccc1O | 7.05 |
| COc1cc(/C=C/c2cc(O)cc(OC)c2CC=C(C)C)ccc1N | 6.59 |

Would you kindly look at the next entry?
Enquiry: Bench note: what pIC50 did COc1cc(/C=C/c2cc(O)cc(OC)c2CC=C(C)C)ccc1NC(C)=O show?
Return: 6.55
